The values you see were collected from the supplement of paper PMC9170038.

Test system: MS2 coat protein
Test details: apparent KD of MS2 coat protein; designed switch direction (-1 OFF switch, 1 ON switch): -1; higher = weaker reporter binding
Stated conditions: Eterna round: R95; input ligand: microRNA oligo, concentration not stated
The class of a record is decided solely by its measured apparent KD of MS2 coat protein; consult label 0: < 20 nM; label 1: ≥ 20 nM and < 60 nM; label 2: ≥ 60 nM

* CCUCAGUAAGGAUAUCAGCUUAUAGAGUUGGUAAUGAGAGCUGAGAAGGUACAUGAGGAUCACCCAUGUUAGUU [JL Zatite mod 3] (puzzle: Exclusion 4) | label 1
* CUGGUCCGAGGAUAUAUUAAGUGAUACAUGAGGAUCACCCAUGUUAUUUAAUGGAUGUUAAUAGAAGGCGGACUAG [JL-ex5-3.19] (puzzle: Exclusion 5) | label 1
* CCGAUAAUGUAGGAUAUCGUAUCGGAAACGAUACGAGAAGGACAAACAUGAGGAUCACCCAUGUUCCUUAACGG [Mat - Exclusion 6 - Eli Mod - D73] (puzzle: Exclusion 6) | label 0
* CGAGUGUAAGGAUAUUCGGCACCAGAGAACGAUCUGGCGUAGAAGAAGGUACAUGAGGAUCACCCAUGUGGUUA [Atonte] (puzzle: Exclusion 4) | label 2
* CAGUACUGAGGAUAUACAUGAGGAUCACCCAUGUGUCCCUGCUAGGAAACUAGCAAAAGUAGAAGGCAGUACUG [Fiskers Ex 3 828 mod 3] (puzzle: Exclusion 3) | label 1
* AAUAGGACAGGAUAUCCGGAGUCGAACAUGAGGAUCACCCAUGUGAUGAGGAUGUUCGCUGGAGAAGGGUCUGGCU [Atisdiis] (puzzle: Exclusion 5) | label 2
* GGAAAGGUAGGAUAUACGAAGAAAAAGGGUAGAAGAAGAACACAUGAGGAUCACCCAUGUAGAAGGACCAAAGC [Mat - Exclusion 2 - Mod of my Tesla design - D15] (puzzle: Exclusion 2) | label 1
* GAGAAAUUAUAGGAUAUCGUAUGGAUAAUUUAACGAGAAGGAUGAACAUGAGGAUCACCCAUGUGGUAUCAUGG [JL-ex6-3.13] (puzzle: Exclusion 6) | label 2
* GCUGGGUCAGGAUAUACAGGGUCGAAAGAUCUGUGAUACCUACAUGAGGAUCACCCAUGUAGAAGGGACUGGGC [ChP 11-04-2015 #10] (puzzle: Exclusion 2) | label 0
* CUUAGUAUCUAGGAUAUCUAGUACAUAGUAUCUAGAGAAGGAGAUACAUGAGGAUCACCCAUGUUCUGUGAUCU [Exclusion 6 - 2:d] (puzzle: Exclusion 6) | label 2
* CACGUCUGAGGAUAUCGUUUUUUGUACAUGAGGAUCACCCAUGUCCAAUUUUGUAUAUUACGAGAAGGCAGUGGAA [JR_E5_Sub090] (puzzle: Exclusion 5) | label 0
* GGUGGACAUGAGGAUCACCCAUGUGAGGAUAUCGGCCGGUUCGUGGUGGCUGGCGUCUCGAGAAGGCGCAUAGU [Exclusion 1 V70] (puzzle: Exclusion 1) | label 1
* CUUCGUAUAGAGGAUAUAGGUUACUUCGGUAUCCUAGAAGGCUGUACAUGAGGAUCACCCAUGUACUUCAGAUC [Exclusion 6 - B - 13:a] (puzzle: Exclusion 6) | label 0
* ACAAGCUUUUUGUUCGUCUUAUACACUCCUAAUAAGACAACAUGAGGAUCACCCAUGUAACAAAGACGAACUCAUGU [Sesor Array 8 - Jieux - Sensor v3, turn-off variant 2] (puzzle: Sensor v3, turn-off variant 2) | label 2
* GUGGUCCGAGGAUAUAUUAUGUGAUACAUGAGGAUCACCCAUGUUAUAUAAUGGAUGUUAGUAGAAGGCGGACUAC [Mat - Exclusion 5 - JL mod - D83] (puzzle: Exclusion 5) | label 1
* AUUAUGUAAGGAUAUCUUACAUGUGACUUCGGUCACUGUUAAGAGAAGGUACAUGAGGAUCACCCAUGUAUAAC [Ex4-3: 48] (puzzle: Exclusion 4) | label 0
* GAGGUGUUAGGAUAUCGGAGAUGGAGAAGAACGGGAAGAGGCGAGAAGGAACAUGAGGAUCACCCAUGUAGGUG [JR_Exclu4_Sub029] (puzzle: Exclusion 4) | label 2
* GAUUAAUGCAAGGAUAUGCUAUUAAUUUAUUUUGCAGAAGGUGCAACAUGAGGAUCACCCAUGUUGGAGGGUAU [JR_E6_Sub027] (puzzle: Exclusion 6) | label 0
* GGACAGUCAGGAUAUACAUGAGGAUCACCCAUGUUGAGAUGUGAAAGGGCGGGAGUAGGUAGAAGGGACGAGAG [JR_Exclu3_Sub040] (puzzle: Exclusion 3) | label 1
* CCGAGGUAGCGGUCCUAUGACAUGAGGAUCACCCAUGUACCUCGCUACGAGCUUUUUGCUCGUCAUAUAAUUCUCGG [Mat - Sensor v3 - turn-off var 1 - JL Mod - D30] (puzzle: Sensor v3, turn-off variant 1) | label 1
* GAAAAGGUAGGAUAUACGAAAAAAAAGGGUAAAAAAAAAACACAUGAGGAUCACCCAUGUAGAAGGACCAAAAG [salish99_ex2_r3_062] (puzzle: Exclusion 2) | label 1
